Let's look at some molecules and their measured pEC50.
- test.system: 5HT2C receptors (Homo sapiens, UniProt P28335)
- Sequence (P28335 33-458): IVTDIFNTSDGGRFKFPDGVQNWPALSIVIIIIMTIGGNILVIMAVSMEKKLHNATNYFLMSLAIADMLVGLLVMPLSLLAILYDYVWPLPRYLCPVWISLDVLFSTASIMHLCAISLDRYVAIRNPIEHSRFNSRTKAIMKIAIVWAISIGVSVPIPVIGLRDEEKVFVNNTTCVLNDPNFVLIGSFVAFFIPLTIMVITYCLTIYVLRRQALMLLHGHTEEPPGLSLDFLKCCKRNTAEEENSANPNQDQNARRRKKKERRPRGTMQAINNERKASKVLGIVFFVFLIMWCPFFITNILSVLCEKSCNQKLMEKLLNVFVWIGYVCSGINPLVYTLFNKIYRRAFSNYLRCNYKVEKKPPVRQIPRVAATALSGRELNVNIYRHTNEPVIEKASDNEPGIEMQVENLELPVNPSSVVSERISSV
- experimental.protocol: Human 5-HT2C functional high throughput screening assay in CHO-K1 cells (calcium flux)
- Assay type: cell-based
- Design: expressed in transfected cells; host or cells: CHO-K1 cells
- experimental.conditions: EC50, 5-HT2C agonist activity; CHO-K1 cells; calcium flux
pEC50: −log10 of the molar value.
outcome.measure: pEC50

>>> readout_value("O=S(=O)(c1ccc(Cl)s1)N1Cc2cccnc2[C@@H]2CNC[C@H]2C1 (relative stereo)")
7.52
>>> readout_value("COc1cccc2c1[C@H]1CN(C)C[C@@H]1CCO2 (relative stereo)")
8.00
>>> readout_value("O=S(=O)(c1cccc(Cl)c1)N1Cc2cccnc2[C@@H]2CNC[C@H]2C1 (relative stereo)")
7.00
>>> readout_value("O=S(=O)(c1ccc(Cl)cc1)N1Cc2cccnc2[C@@H]2CNC[C@H]2C1 (relative stereo)")
7.15
